- EXPERIMENTAL TARGET: Bromodomain-containing protein 3 (Homo sapiens, UniProt Q15059)
- Sequence (Q15059 whole entry): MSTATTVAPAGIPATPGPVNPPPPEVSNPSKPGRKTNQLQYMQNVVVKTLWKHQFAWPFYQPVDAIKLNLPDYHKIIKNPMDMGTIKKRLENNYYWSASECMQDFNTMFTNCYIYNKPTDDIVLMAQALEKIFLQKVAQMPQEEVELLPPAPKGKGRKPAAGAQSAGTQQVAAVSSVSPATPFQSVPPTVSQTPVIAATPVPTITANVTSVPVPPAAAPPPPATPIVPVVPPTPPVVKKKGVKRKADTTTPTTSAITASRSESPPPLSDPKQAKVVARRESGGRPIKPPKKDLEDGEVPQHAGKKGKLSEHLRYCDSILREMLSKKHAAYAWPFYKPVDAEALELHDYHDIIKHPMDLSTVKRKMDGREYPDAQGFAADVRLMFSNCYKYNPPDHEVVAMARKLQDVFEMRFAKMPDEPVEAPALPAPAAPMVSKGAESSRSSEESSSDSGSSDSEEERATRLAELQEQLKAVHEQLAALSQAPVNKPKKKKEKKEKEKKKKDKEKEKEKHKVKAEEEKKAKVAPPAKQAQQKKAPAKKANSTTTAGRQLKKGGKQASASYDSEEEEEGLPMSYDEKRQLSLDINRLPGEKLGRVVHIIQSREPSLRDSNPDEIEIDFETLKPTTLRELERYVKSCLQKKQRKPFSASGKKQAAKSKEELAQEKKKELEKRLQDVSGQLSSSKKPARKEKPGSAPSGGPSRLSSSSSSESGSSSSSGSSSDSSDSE
- EXPERIMENT DESCRIPTION: Inhibition of BRD3-BD1 (unknown origin) assessed as dissociation constant by TR-FRET method
ASSAY READOUT: pIC50
// field semantics: pIC50 = negative decimal log of concentration (mol/L)

Short answer please: pIC50, Bromodomain-containing protein 3 (Homo sapiens, UniProt Q15059), entry CC(=O)Nc1c(F)cc(C(=O)N[C@H]2CC[C@H](O)CC2)cc1O[C@@H](C)c1ccccc1 [GSK046]
5.44

----------
- EXPERIMENTAL TARGET: Bromodomain-containing protein 3 (Homo sapiens)
- EXPERIMENT DESCRIPTION: Inhibition of BRD3-BD2 (unknown origin) incubated for 6 hrs by HTRF method
ASSAY READOUT: IC50

These solved cases illustrate the format of a correct answer.
{"CHEMICAL SMILES": "CC(=O)N1CCc2c(sc3nc(SCC(=O)Nc4ccccc4)n(-c4ccccc4)c(=O)c23)C1", "IC50": "5500 nM"}
{"CHEMICAL SMILES": "CC(=O)c1ccc(NC(=O)CSc2nc3sc4c(c3c(=O)n2Cc2ccco2)CCN(C(C)=O)C4)cc1", "IC50": "320 nM"}
{"CHEMICAL SMILES": "CCOc1ccc(NC(=O)CSc2nc3sc4c(c3c(=O)n2Cc2ccco2)CCN(C(C)=O)C4)cc1", "IC50": "880 nM"}
{"CHEMICAL SMILES": "CC(=O)N1CCc2c(sc3nc(SCC(=O)Nc4cc(Cl)ccc4C)n(-c4ccc(C)o4)c(=O)c23)C1", "IC50": "410 nM"}

Short answer please: IC50, Bromodomain-containing protein 3 (Homo sapiens), entry "CC(=O)c1cccc(NC(=O)CSc2nc3sc4c(c3c(=O)n2Cc2ccco2)CCN(C(C)=O)C4)c1"
170 nM
